The reported numbers originate from patent US12234227B2.

Target: human H4 receptor (Homo sapiens, UniProt Q9H3N8)
Construct: expressed in transfected cells; host or cells: HEKf cells transduced with baculovirus
Sequence (Q9H3N8 whole entry): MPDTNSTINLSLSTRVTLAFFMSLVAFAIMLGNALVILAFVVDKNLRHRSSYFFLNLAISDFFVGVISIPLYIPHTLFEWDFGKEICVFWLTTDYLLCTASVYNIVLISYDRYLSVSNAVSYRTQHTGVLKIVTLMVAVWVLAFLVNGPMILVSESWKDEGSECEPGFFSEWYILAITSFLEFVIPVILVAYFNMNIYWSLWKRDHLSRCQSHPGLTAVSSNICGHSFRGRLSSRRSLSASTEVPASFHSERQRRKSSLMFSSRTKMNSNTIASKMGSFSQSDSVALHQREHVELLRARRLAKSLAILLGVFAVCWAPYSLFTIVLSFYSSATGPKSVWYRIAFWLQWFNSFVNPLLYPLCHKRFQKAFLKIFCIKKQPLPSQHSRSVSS
Assay: H4 Antagonist Functional Dynamic Mass Redistribution Assay
Type: cell-based
Conditions: H4 antagonist activity, read-out: Human H4 DMR fpKb (converted)
Assay metric: Kb

Memo: Cc1[nH]ncc1-c1cc(N2CC[C@@H](N)C2)nc(N)n1 , reported Kb: 10 nM

Memo: Cc1n[nH]c(-c2cc(N3CC(N)C3)nc(N)n2)c1Cl [Example 17-6, ditrifluoroacetate] , reported Kb: 12.6 nM

Memo: CN[C@@H]1CCN(c2cc(-c3[nH]ncc3Cl)nc(N)n2)C1 , reported Kb: 1.26 nM

Memo: CN[C@@H]1CCN(c2cc(-c3[nH]nc(OC)c3Cl)nc(N)n2)C1 , reported Kb: 5.01 nM

Memo: CCc1n[nH]c(-c2cc(N3CC[C@@H](NC)C3)nc(N)n2)c1C , reported Kb: 20 nM

Memo: CN[C@@H]1CCN(c2cc(-c3cn[nH]c3C)nc(N)n2)C1 , reported Kb: 3.98 nM

Memo: Cc1cn[nH]c1-c1cc(N2C[C@H]3CCCN[C@H]3C2)nc(N)n1 [Example 16-7, ditrifluoroacetate] , reported Kb: 6.31 nM
